Target: T1, human insulin receptor on CHO cells (human, UniProt P06213 28-1382)
T1 construct: whole, on cells
Test: competition with 125I-insulin, CHO cells expressing human insulin receptor, 4 C
pIC50: −log10 of the molar value.
property_label: pIC50

Ask: Write down pIC50 measured for item PINT-12A2 IgG (antibody, V domains shown) VH: EVQLVQSGAEVKKPGASVKVSCKASGYSFTNYGLNWVRQAPGQGLEWMGWISPYTGYTNYAQKFQGRVTMTTDKSTSTAYMDLRSLRSDDTAVYYCAREIFSHCTGGSCYPFDSWGQGTLVTVSS VL: LSSELTQDPAVSVALGQTVRITCQGDSLRNYYASWYQQKPGQAPLLVMFGKNNRPSEIPGRFSGSSSGNTASLTITGAQAEDEADYYCNSRDSNSHQWVFGGGTKLTVLG
Reply: < 6.70

Ask: Write down pIC50 measured for item PINT-12A3 IgG (antibody, V domains shown) VH: QVQLVQSGAEVKKPGASVKVSCKASGYSFTNYGLNWVRQAPGQGLEWMGWISPYTGYTNYAQKFQGRVTMTSDKSTSTAYMDLRSLRSDDTAIYYCAREIFSHCSGGSCYPFDYWGQGTLVTVSS VL: LSSELTQDPAVSVALGQTVRITCQGDSLRSYYASWYQQKPGQAPLLVIYGRNNRPSGIPDRFSGSSSGNTASLTITGAQAEDEADYYCNSRDSSTNHGNWVFGGGTQLTVLS
Reply: < 6.70

Ask: Write down pIC50 measured for item PINT-11A5 IgG (antibody, V domains shown) VH: QVQLVQSGAEVKKPGASVKVSCKASGYSFTNYGLNWVRQAPGQGLEWMGWISPYTGYTNYAQKFQGRVTMTTDKSTSTAYMDLRSLRSDDTAVYYCAREIFSHCTGGSCYPFDSWGKGTLVTVSS VL: LSSELTQDPAVSVALGQTVRITCQGDSLRSYYASWYQQKPGQAPVLVIYGKNNRPSGIPDRFSGSSSGNTASLTITGAQAEDEADYYCNSRDSSGNHHWVFGGGTKVTVLG
Reply: < 6.70
